# reported pEC50; entries follow
Target: T1, recombinant human soluble gpNMB (recombinant human gpNMB-FLAG-His) (human, UniProt Q14956 23-498)
T1 sequence: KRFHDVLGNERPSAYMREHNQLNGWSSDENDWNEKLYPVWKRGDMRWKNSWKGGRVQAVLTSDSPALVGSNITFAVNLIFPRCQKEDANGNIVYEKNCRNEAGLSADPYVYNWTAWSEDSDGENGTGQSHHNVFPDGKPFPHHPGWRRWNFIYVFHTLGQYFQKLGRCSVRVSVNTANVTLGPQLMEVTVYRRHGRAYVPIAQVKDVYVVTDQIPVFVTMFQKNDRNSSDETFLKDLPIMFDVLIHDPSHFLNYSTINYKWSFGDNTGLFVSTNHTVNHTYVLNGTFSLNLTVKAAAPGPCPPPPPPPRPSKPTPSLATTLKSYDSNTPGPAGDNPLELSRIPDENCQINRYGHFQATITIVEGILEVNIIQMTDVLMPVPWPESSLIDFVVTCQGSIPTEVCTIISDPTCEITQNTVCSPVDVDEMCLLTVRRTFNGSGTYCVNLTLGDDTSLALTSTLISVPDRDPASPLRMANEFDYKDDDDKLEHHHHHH
Experiment: antigen ELISA
Reminder that pEC50 is minus the log10 of a molar concentration.

Here are 2 binders together with their reported answers.
{"binder": "hGPN06-1_H1L1 VH F64A (antibody, V domains shown) VH: QVQLVQSGAEVKKPGASVKVSCKASGYTFTDNWMGWVKQRPGQGLEWIGAIDPSDSFTNYNQNAKGRVTMTVDTSISTAYMELSRLRSDDSAVYFCTRSGYYGSPKLGGDYWGQGTLVTVSS VL: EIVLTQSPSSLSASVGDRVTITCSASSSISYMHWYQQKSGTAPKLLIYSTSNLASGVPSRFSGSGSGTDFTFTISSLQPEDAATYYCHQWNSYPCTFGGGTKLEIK", "reportedResult": 9.35}
{"binder": "hGPN06-1_H1L1 VH S54A (antibody, V domains shown) VH: QVQLVQSGAEVKKPGASVKVSCKASGYTFTDNWMGWVKQRPGQGLEWIGAIDPADSFTNYNQNFKGRVTMTVDTSISTAYMELSRLRSDDSAVYFCTRSGYYGSPKLGGDYWGQGTLVTVSS VL: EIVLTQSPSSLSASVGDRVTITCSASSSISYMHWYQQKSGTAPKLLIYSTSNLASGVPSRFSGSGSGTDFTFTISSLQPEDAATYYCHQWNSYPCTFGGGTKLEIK", "reportedResult": 9.19}

Attention now turns to another entry.
// hGPN06-1_H1L1 VH Q62A (antibody, V domains shown) VH: QVQLVQSGAEVKKPGASVKVSCKASGYTFTDNWMGWVKQRPGQGLEWIGAIDPSDSFTNYNANFKGRVTMTVDTSISTAYMELSRLRSDDSAVYFCTRSGYYGSPKLGGDYWGQGTLVTVSS VL: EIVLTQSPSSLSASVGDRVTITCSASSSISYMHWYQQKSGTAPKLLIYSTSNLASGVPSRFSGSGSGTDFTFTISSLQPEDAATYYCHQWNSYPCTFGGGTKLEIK : pEC50 value = 9.39
